- SUBJECT OF TEST: CyclinA2/CDK2 (Homo sapiens)
- Construct: purchased CRELUX Protein Services
- EXPERIMENT: Fluorescence Polarization (FP) competitive binding assay, Cyclin A2/Cdk2;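 note: plates equilibrated two hours at room temperature before polarization reading, IC50 fitted from eight-concentration compound titration curves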
- EXPERIMENTAL SETUP: 8 nM Cyclin A2/Cdk2, 2 nM FAM probe; average of 2-3 independent experiments; read-out: Cyclin A FP IC50
*1 amine or outer side, *2 acyl side, *3 side chain or, on linkers, in order; H or OH if unused. Where a SMILES comes first, the peptide text is derived from it. Bridges are numbered along the chain shown (N, C = ends). [ ]: non-standard residue; d: D form. The star is where a group is joined. NMePhe(5-Cl,2-O(2-Pym)) = CN[C@@H](Cc1cc(Cl)ccc1Oc1ncccn1)C(=O)O; X190 = CC(=O)N1CC(Oc2ncc(Cl)cc2C[C@@H](C(=O)[*:2])N(C)[*:1])C1; X26 = CN([C@@H](Cc1cc(F)ccc1-c1cnn(C2CC2)c1)C(=O)[*:2])[*:1]; NMehhhLys(Me) = CN([C@@H](CCCCCCCN(C)[*:3])C(=O)[*:2])[*:1]; Oxane2carbonyl(2R-CF3) = O=C([C@@]1(C(F)(F)F)CCCCO1)*; Cyclobutanecarbonyl(1-CF3) = O=C(C1(C(F)(F)F)CCC1)*; cBuCO(3,3-F2-1-CF3) = O=C(C1(C(F)(F)F)CC(F)(F)C1)*; Pro(trans-4-F) = O=C(O)[C@@H]1C[C@@H](F)CN1; Gly(cPr) = N[C@H](C(=O)O)C1CC1
REPORTED METRIC: pIC50
Answers are plain numbers, as −log10 of the molar value.

Check out these entries, answers already filled in.
CC(C)C[C@@H]1NC(=O)[C@@H](N(C)C(=O)[C@@H](NC(=O)[C@@H]2C[C@@H](F)CN2C(=O)C2(C(F)(F)F)CCC2)C2CC2)CCCCCCCN(C)C(=O)[C@H](Cc2cc(Cl)ccc2Oc2ncccn2)N(C)C1=O [Example 159] ({Cyclobutanecarbonyl(1-CF3)}-[Pro(trans-4-F)][Gly(cPr)][NMehhhLys(Me)]L[NMePhe(5-Cl,2-O(2-Pym))]; lactam 3-C) | 7.10
CC(=O)N1CC(Oc2ncc(Cl)cc2C[C@H]2C(=O)N(C)CCCCCCC[C@H](N(C)C(=O)[C@@H](NC(=O)[C@@H]3C[C@@H](F)CN3C(=O)C3(C(F)(F)F)CC(F)(F)C3)C3CC3)C(=O)N[C@@H](CC(C)C)C(=O)N2C)C1 [Example 324] ({cBuCO(3,3-F2-1-CF3)}-[Pro(trans-4-F)][Gly(cPr)][NMehhhLys(Me)]L[X190]; lactam 3-C) | 7.22
[2H]C([2H])([2H])N(C(=O)[C@@H](NC(=O)[C@@H]1C[C@@H](F)CN1C(=O)C1(C(F)(F)F)CC(F)(F)C1)C1CC1)[C@H]1CCCCCCCN(C)C(=O)[C@H](Cc2cc(Cl)ccc2-c2ccc(N3CCN(C)CC3)cc2)N(C)C(=O)[C@H](CC(C)C)NC1=O [Example 422] | 7.70
CC(C)C[C@@H]1NC(=O)[C@@H](N(C)C(=O)[C@@H](NC(=O)[C@@H]2C[C@@H](F)CN2C(=O)[C@@]2(C(F)(F)F)CCCCO2)C2CC2)CCCCCCCN(C)C(=O)[C@H](Cc2cc(F)ccc2-c2cnn(C3CC3)c2)N(C)C1=O [Example 147] ({Oxane2carbonyl(2R-CF3)}-[Pro(trans-4-F)][Gly(cPr)][NMehhhLys(Me)]L[X26]; lactam 3-C) | 7.70
CC(=O)N1[C@H]2CC[C@@H]1C=C(c1ccc(Cl)cc1C[C@H]1C(=O)N(C)CCCCCCC[C@H](N(C)C(=O)[C@@H](NC(=O)[C@@H]3C[C@@H](F)CN3C(=O)C3(C(F)(F)F)CC(F)(F)C3)C3CC3)C(=O)N[C@@H](CC(C)C)C(=O)N1C)C2 (single isomer, unassigned) [Example 57-P1] | 7.70

Field pIC50 (entry CC(C)C[C@@H]1NC(=O)[C@@H](N(C)C(=O)[C@@H](NC(=O)[C@@H]2C[C@@H](F)CN2C(=O)C2(C(F)(F)F)CC(F)(F)C2)C2CC2)CCCCCCN(C)C(=O)[C@H](Cc2cc(Cl)ccc2-c2cnn(C)c2)N(C)C1=O [Example 72] ) reads 7.52
